targetDesc: 5-hydroxytryptamine receptor 1A (Homo sapiens, UniProt P08908)
Sequence (P08908 whole entry): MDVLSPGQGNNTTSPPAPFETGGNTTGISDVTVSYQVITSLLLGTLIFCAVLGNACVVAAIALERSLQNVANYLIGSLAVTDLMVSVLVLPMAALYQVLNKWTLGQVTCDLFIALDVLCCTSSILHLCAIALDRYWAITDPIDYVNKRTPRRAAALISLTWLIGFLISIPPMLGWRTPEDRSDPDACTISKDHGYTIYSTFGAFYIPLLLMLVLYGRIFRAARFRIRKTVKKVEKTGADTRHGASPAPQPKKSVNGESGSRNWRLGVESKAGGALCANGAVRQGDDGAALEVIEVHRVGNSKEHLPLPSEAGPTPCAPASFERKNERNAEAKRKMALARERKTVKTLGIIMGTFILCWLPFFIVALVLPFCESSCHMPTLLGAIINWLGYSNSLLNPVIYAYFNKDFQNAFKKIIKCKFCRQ
assayDetails: Binding affinity to human recombinant 5HT1A receptor
readoutKind: Ki (nM)
Write the answer as a number in nM, unit excluded.

I am curious: what Ki value has been reported for "C[C@@H]1CCCN1CCc1cc2cc(C(=O)c3ccc(F)cc3)ccc2o1" ?
432

----------
Provide the recorded Ki for the entries that follow.
targetDesc: UniProtKB P28223
Sequence (P28223 whole entry): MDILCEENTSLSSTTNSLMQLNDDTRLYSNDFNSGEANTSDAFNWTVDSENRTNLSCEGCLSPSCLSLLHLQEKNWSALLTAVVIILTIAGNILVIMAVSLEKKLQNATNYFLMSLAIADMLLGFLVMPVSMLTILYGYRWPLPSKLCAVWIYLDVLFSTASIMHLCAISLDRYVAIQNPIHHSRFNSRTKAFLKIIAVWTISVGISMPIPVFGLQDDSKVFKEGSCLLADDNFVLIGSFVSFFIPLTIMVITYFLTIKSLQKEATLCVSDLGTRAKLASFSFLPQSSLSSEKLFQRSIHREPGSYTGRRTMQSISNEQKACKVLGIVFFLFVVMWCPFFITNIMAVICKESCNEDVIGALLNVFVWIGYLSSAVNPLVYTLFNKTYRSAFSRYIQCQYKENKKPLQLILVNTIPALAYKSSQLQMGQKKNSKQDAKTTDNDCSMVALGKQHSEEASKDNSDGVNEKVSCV
assayDetails: Binding affinity to human recombinant 5HT2A receptor
Quick note: number first, unit second.

I am curious: what Ki value has been reported for "C[C@@H]1CCCN1CCc1cc2cc(C(=O)c3ccc(F)cc3)ccc2o1" ?
2.72 µM

Then this molecule: "C[C@@H]1CCCN1CCc1cc2cc(C(=O)c3ccc([N+](=O)[O-])cc3)ccc2o1"
1.36 µM

Hey, just so you know, these numbers are from ChEMBL document CHEMBL2029214.
